testedOn: CYP2B6 (Homo sapiens)
Sequence (P20813 whole entry): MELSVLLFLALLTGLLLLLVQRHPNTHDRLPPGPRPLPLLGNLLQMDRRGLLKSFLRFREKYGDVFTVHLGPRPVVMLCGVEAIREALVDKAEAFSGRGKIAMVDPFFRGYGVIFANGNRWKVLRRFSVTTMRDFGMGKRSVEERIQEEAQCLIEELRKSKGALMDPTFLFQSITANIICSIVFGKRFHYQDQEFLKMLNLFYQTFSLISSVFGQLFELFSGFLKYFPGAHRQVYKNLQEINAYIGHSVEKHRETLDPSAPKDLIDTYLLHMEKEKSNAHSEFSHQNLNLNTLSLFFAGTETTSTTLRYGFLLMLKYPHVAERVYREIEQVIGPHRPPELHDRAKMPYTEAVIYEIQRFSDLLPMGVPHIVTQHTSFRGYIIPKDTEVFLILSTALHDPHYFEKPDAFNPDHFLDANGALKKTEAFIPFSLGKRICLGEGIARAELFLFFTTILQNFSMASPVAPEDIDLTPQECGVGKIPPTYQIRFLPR
experimentNotes: Inhibition of CYP2B6 in human liver microsomes assessed as residual activity at 10 uM using bupropion as substrate preincubated for 5 mins followed by NADPH addition and measured after 15 mins by LC-MS/MS analysis relative to control
Format: ADME
assayContext: probe bupropion, read-out: Activity
endpoint: activity at 0.25 h, 10 µM (%)
Numbers only, in %.

Examples from the recorded data:
| compound | testedOn | unitAbbrev | recordedNumber |
| --- | --- | --- | --- |
| C=CC(=O)Nc1cc2c(Nc3ccc(F)c(Cl)c3)ncnc2cc1OCc1cn(Cc2cccc(F)c2)nn1 | CYP2B6 (Homo sapiens) | % | 67.1 |
| C=CC(=O)Nc1cc2c(Nc3ccc(F)c(Cl)c3)ncnc2cc1OCc1cn(Cc2ccc(Cl)cc2)nn1 | CYP2B6 (Homo sapiens) | % | 78.8 |
| C=CC(=O)Nc1cc2c(Nc3ccc(F)c(Cl)c3)ncnc2cc1OCc1cn(Cc2ccc(F)cc2)nn1 | CYP2B6 (Homo sapiens) | % | 67.9 |

Kindly consider the entry below.
CC(=O)N1CCN(c2ccc(OCC3COC(Cn4ccnc4)(c4ccc(Cl)cc4Cl)O3)cc2)CC1 (centres undefined) tested on CYP2B6 (Homo sapiens) gave activity at 0.25 h, 10 µM: 84.1

###

testedOn: CYP3A4 (Homo sapiens, UniProt P08684)
Sequence (P08684 whole entry): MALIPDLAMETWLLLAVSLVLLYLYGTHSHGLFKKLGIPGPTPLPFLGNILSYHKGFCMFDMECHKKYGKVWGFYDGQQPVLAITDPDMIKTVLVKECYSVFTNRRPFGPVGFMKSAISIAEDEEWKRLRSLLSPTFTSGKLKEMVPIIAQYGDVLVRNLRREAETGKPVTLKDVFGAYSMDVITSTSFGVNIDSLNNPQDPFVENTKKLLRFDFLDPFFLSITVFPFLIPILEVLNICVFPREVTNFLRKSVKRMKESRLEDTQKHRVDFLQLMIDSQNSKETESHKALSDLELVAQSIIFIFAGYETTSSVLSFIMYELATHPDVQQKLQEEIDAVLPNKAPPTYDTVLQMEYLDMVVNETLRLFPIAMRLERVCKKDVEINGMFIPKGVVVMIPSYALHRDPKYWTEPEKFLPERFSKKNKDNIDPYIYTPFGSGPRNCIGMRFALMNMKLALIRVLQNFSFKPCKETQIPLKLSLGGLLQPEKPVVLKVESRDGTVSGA
experimentNotes: Inhibition of CYP3A4 in human liver microsomes assessed as residual activity at 10 uM using midazolam as substrate preincubated for 5 mins followed by NADPH addition and measured after 15 mins by LC-MS/MS analysis relative to control
Assay type: ADME
assayContext: probe midazolam, read-out: Activity
endpoint: activity at 0.25 h, 10 µM (%)
Give bare numbers, in %.

Would you mind giving activity at 0.25 h, 10 µM for every molecule in the list below?
1. C=CC(=O)Nc1cc2c(Nc3ccc(F)c(Cl)c3)ncnc2cc1OCc1cn(Cc2ccc(Cl)cc2)nn1
2. C=CC(=O)Nc1cc2c(Nc3ccc(F)c(Cl)c3)ncnc2cc1OCc1cn(Cc2cccc(F)c2)nn1
3. CC(=O)N1CCN(c2ccc(OCC3COC(Cn4ccnc4)(c4ccc(Cl)cc4Cl)O3)cc2)CC1 (centres undefined)
4. C=CC(=O)Nc1cc2c(Nc3ccc(F)c(Cl)c3)ncnc2cc1OCc1cn(Cc2ccc(F)cc2)nn1

Reply:
[77.6, 50.1, 35.7, 55.3]

###

Assign activity at 0.25 h, 10 µM to each entry below.
testedOn: CYP2E1 (Homo sapiens, UniProt P05181)
Sequence (P05181 whole entry): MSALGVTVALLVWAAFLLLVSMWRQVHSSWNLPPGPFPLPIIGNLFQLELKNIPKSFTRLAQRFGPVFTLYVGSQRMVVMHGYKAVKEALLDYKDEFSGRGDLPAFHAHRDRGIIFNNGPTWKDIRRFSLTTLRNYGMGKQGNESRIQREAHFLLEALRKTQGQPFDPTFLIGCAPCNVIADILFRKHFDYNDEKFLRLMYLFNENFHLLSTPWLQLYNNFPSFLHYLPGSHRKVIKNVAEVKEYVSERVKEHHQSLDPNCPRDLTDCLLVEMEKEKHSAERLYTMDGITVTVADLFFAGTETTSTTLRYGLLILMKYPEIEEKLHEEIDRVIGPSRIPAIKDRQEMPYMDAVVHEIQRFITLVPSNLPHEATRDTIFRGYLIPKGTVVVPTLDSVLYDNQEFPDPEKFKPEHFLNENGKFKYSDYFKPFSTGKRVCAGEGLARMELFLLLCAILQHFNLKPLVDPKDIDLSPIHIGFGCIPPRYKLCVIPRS
experimentNotes: Inhibition of CYP2E1 in human liver microsomes assessed as residual activity at 10 uM using chlorzoxazone as substrate preincubated for 5 mins followed by NADPH addition and measured after 15 mins by LC-MS/MS analysis relative to control
Type: ADME
assayContext: probe chlorzoxazone, read-out: Activity
One number for each entry, in %.

| compound | unitAbbrev | activity at 0.25 h, 10 µM |
| --- | --- | --- |
| C=CC(=O)Nc1cc2c(Nc3ccc(F)c(Cl)c3)ncnc2cc1OCc1cn(Cc2cccc(F)c2)nn1 | % | 59 |
| C=CC(=O)Nc1cc2c(Nc3ccc(F)c(Cl)c3)ncnc2cc1OCc1cn(Cc2ccc(F)cc2)nn1 | % | 60.9 |
| C=CC(=O)Nc1cc2c(Nc3ccc(F)c(Cl)c3)ncnc2cc1OCc1cn(Cc2ccc(Cl)cc2)nn1 | % | 63.4 |

Documented activity at 0.25 h, 10 µM of CC(=O)N1CCN(c2ccc(OCC3COC(Cn4ccnc4)(c4ccc(Cl)cc4Cl)O3)cc2)CC1 (centres undefined) [KETOCONAZOLE] : 98.1
